- Tested on: 276233-004-R-J1-PDC complex spheroid viability
- assayOverview: Anticancer human tumor 276233-004-R-J1-PDC patient-derived colon adenocarcinoma cell line growth inhibition [GQUAD]
- conditionInfo: second compound 1 µM; first compound 0.00316 µM; active compounds read low
Record form. Attribute: viability, T/C. Fill in for each entry.
One number for each entry, in %.

CC[C@@]1(O)C(=O)OCc2c1cc1n(c2=O)Cc2cc3c(CN(C)C)c(O)ccc3nc2-1 + Cc1[nH]c2ccc(F)cc2c1-c1nc2c3cccnc3c3ncccc3c2[nH]1
78.4
Cn1ncnc1[C@H]1c2n[nH]c(=O)c3cc(F)cc(c23)N[C@@H]1c1ccc(F)cc1 + Cc1[nH]c2ccc(F)cc2c1-c1nc2c3cccnc3c3ncccc3c2[nH]1
66.6
Cc1[nH]c2ccccc2c1CCNCc1ccc(/C=C/C(=O)NO)cc1 + Cc1[nH]c2ccc(F)cc2c1-c1nc2c3cccnc3c3ncccc3c2[nH]1
44.6
CC[C@@]1(O)C(=O)OCc2c1cc1n(c2=O)Cc2cc3c(CN(C)C)c(O)ccc3nc2-1 + Cc1cnc(CNC(=O)c2c(=O)c3ccc(N4CCCN(C)CC4)nc3n3c2sc2ccccc23)cn1
93.9
Cn1ncnc1[C@H]1c2n[nH]c(=O)c3cc(F)cc(c23)N[C@@H]1c1ccc(F)cc1 + CN(C)c1ccc(Nc2c3ccc(NC(=O)CCN4CCCC4)cc3nc3cc(NC(=O)CCN4CCCC4)ccc23)cc1
51

// each listed compound needs a value for viability, T/C
1. Cc1[nH]c2ccccc2c1CCNCc1ccc(/C=C/C(=O)NO)cc1 + Cc1cnc(CNC(=O)c2c(=O)c3ccc(N4CCCN(C)CC4)nc3n3c2sc2ccccc23)cn1
2. CCc1c2c(nc3ccc(O)cc13)-c1cc3c(c(=O)n1C2)COC(=O)[C@]3(O)CC + Cc1[nH]c2ccc(F)cc2c1-c1nc2c3cccnc3c3ncccc3c2[nH]1
3. Cn1ncnc1[C@H]1c2n[nH]c(=O)c3cc(F)cc(c23)N[C@@H]1c1ccc(F)cc1 + Cc1cnc(CNC(=O)c2c(=O)c3ccc(N4CCCN(C)CC4)nc3n3c2sc2ccccc23)cn1
4. CCc1c2c(nc3ccc(O)cc13)-c1cc3c(c(=O)n1C2)COC(=O)[C@]3(O)CC + Cc1cnc(CNC(=O)c2c(=O)c3ccc(N4CCCN(C)CC4)nc3n3c2sc2ccccc23)cn1
5. Cc1[nH]c2ccccc2c1CCNCc1ccc(/C=C/C(=O)NO)cc1 + CN(C)c1ccc(Nc2c3ccc(NC(=O)CCN4CCCC4)cc3nc3cc(NC(=O)CCN4CCCC4)ccc23)cc1
6. CCc1c2c(nc3ccc(O)cc13)-c1cc3c(c(=O)n1C2)COC(=O)[C@]3(O)CC + CN(C)c1ccc(Nc2c3ccc(NC(=O)CCN4CCCC4)cc3nc3cc(NC(=O)CCN4CCCC4)ccc23)cc1

Solution:
1: 92; 2: 82.7; 3: 65.9; 4: 74.7; 5: 54.2; 6: 50.9

Problem: If you can, please state the reported viability, T/C value of CC[C@@]1(O)C(=O)OCc2c1cc1n(c2=O)Cc2cc3c(CN(C)C)c(O)ccc3nc2-1 + CN(C)c1ccc(Nc2c3ccc(NC(=O)CCN4CCCC4)cc3nc3cc(NC(=O)CCN4CCCC4)ccc23)cc1 .
Solution: 56.4

---

- Tested on: 276233-004-R-J1-PDC complex spheroid viability
- assayOverview: Anticancer human tumor 276233-004-R-J1-PDC cell line growth inhibition [GQUAD];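 further: spheroids exposed to drugs for seven days; 100% = DMSO vehicle control viability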
- conditionInfo: second compound 0.316 µM; first compound 0.00316 µM; active compounds read low
Record form. Attribute: viability, T/C. Fill in for each entry.
One number for each entry, in %.

Solved entries (count: 4):
Cn1ncnc1[C@H]1c2n[nH]c(=O)c3cc(F)cc(c23)N[C@@H]1c1ccc(F)cc1 + Cc1cnc(CNC(=O)c2c(=O)c3ccc(N4CCCN(C)CC4)nc3n3c2sc2ccccc23)cn1
91.9
CC[C@@]1(O)C(=O)OCc2c1cc1n(c2=O)Cc2cc3c(CN(C)C)c(O)ccc3nc2-1 + CN(C)c1ccc(Nc2c3ccc(NC(=O)CCN4CCCC4)cc3nc3cc(NC(=O)CCN4CCCC4)ccc23)cc1
84.2
Cc1[nH]c2ccccc2c1CCNCc1ccc(/C=C/C(=O)NO)cc1 + Cc1[nH]c2ccc(F)cc2c1-c1nc2c3cccnc3c3ncccc3c2[nH]1
62.3
CCc1c2c(nc3ccc(O)cc13)-c1cc3c(c(=O)n1C2)COC(=O)[C@]3(O)CC + CN(C)c1ccc(Nc2c3ccc(NC(=O)CCN4CCCC4)cc3nc3cc(NC(=O)CCN4CCCC4)ccc23)cc1
71.1

// each listed compound needs a value for viability, T/C
1. CCc1c2c(nc3ccc(O)cc13)-c1cc3c(c(=O)n1C2)COC(=O)[C@]3(O)CC + Cc1cnc(CNC(=O)c2c(=O)c3ccc(N4CCCN(C)CC4)nc3n3c2sc2ccccc23)cn1
2. Cn1ncnc1[C@H]1c2n[nH]c(=O)c3cc(F)cc(c23)N[C@@H]1c1ccc(F)cc1 + Cc1[nH]c2ccc(F)cc2c1-c1nc2c3cccnc3c3ncccc3c2[nH]1

Solution:
[103, 79.9]

The measured values listed here are drawn from PubChem BioAssay AID2060496.
